molecular target: Langerin extracellular domain (ECD) (Homo sapiens, UniProt Q9UJ71); construct: the trimeric Langerin extracellular domain (ECD) was expressed insolubly in E; made in house; experiment: 19F R2-filtered NMR reporter displacement assay with Langerin; assay type: binding; settings: calculated utilizing the KI value determined for 21
Sequence (Q9UJ71 65-328 limits assumed): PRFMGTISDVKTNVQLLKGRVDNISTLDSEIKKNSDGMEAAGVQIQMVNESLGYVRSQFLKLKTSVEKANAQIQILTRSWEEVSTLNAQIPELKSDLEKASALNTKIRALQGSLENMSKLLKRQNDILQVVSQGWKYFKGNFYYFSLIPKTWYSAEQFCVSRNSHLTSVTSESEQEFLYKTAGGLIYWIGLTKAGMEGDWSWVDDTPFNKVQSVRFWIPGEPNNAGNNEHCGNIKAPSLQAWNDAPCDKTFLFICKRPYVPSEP
Property measured: Relative potency, Langerin

> print(dat)
                                   compound  value
1  CC(=O)NCCO[C@@H]1O[C@H](CO)[C@@H](O)[C@H](O)[C@H]1NS(=O)(=O)c1ccc(C)cc1     42
2  CC(=O)NCCO[C@H]1O[C@H](CO)[C@@H](O)[C@H](O)[C@@H]1O    1.0
3  Cc1ccc(S(=O)(=O)N[C@H]2C(O)O[C@H](CO)[C@@H](O)[C@@H]2O)cc1 (stereo partly shown)     31
4  OC[C@H]1OC(O)[C@@H](O)[C@@H](O)[C@@H]1O (stereo partly shown)    2.2

###

Consider the following compounds and their measured pKi readings.
molecular target: Langerin extracellular domain (ECD) (Homo sapiens, UniProt Q9UJ71); construct: the trimeric Langerin extracellular domain (ECD) was expressed insolubly in E; made in house; test: 19F R2-filtered NMR reporter displacement assay with Langerin; type: binding; conditions: 19F R2-filtered NMR, 0.1 mM reporter ligand 24, pH 7.8, 25 °C
pKi: −log10 of the molar value.
Property measured: pKi

Compound	Value
Cc1ccc(S(=O)(=O)N[C@H]2C(O)O[C@H](CO)[C@@H](O)[C@@H]2O)cc1 (some centres unmarked) [compound 2]	3.49
CC(=O)NCCO[C@H]1O[C@H](CO)[C@@H](O)[C@H](O)[C@@H]1O [compound 21]	2.00
O=S(=O)(O)N[C@H]1C(O)O[C@H](CO)[C@@H](O)[C@@H]1O (some centres unmarked) [GlcNS, glucosamine-2-sulfate]	2.85
O=S(=O)(O)N[C@H]1C(O)O[C@H](COS(=O)(=O)O)[C@@H](O)[C@@H]1O (some centres unmarked) [GlcNS-6-OS, glucosamine-2-sulfate-6-sulfate]	3.55
OC[C@H]1OC(O)[C@H](O)[C@@H](O)[C@@H]1O (some centres unmarked) [Glc]	1.68
CC(=O)N[C@H]1C(O)O[C@H](COS(=O)(=O)O)[C@@H](O)[C@@H]1O (some centres unmarked) [GlcNAc-6-OS, N-acetyl glucosamine-6-sulfate]	3.22
CC(=O)NCCO[C@@H]1O[C@H](CO)[C@@H](O)[C@H](O)[C@H]1NS(=O)(=O)c1ccc(C)cc1 [compound 16]	3.62
CC(=O)N[C@@H]1[C@@H](O)[C@H](O)[C@@H](CO)O[C@H]1O [GlcNAc, N-acetyl glucosamine]	2.39
